The reported measurements were obtained from paper PMC12154787.

PROCEDURE TEXT: Pharmacokinetics of HCT constituents in rat plasma after a single dose of HCT extract
Type: in vivo, SD rats
APPLIED CONDITIONS: female, SD, FDH: 600 mg/kg BW freeze-dried HCT extract
RECORDED ENDPOINT: Tmax (h)
Hi! Could you send only the number? It should be in h, unit omitted.

Measured Tmax, O=C(O)[C@H]1O[C@@H](Oc2cc3oc(-c4ccc(O)cc4)cc(=O)c3c(O)c2O)[C@H](O)[C@@H](O)[C@@H]1O : 1.5

---

PROCEDURE TEXT: Pharmacokinetics of HCT constituents in rat plasma after a single dose of HCT extract
Format: in vivo, SD rats
APPLIED CONDITIONS: female, SD, rat, plasma, 600 mg/kg, 50H: 600 mg/kg BW 50 °C hot-air dried HCT extract
RECORDED ENDPOINT: Cmax (nM)
Hi! Could you send only the number? It should be in nM, unit omitted.

// worked examples, Cmax included
COMPOUND	RECORDED ENDPOINT	UNITS	MEASURED
O=C(/C=C/c1ccc(O)c(O)c1)O[C@@H]1C[C@](O)(C(=O)O)C[C@@H](O)[C@H]1O [Chlorogenic acid, chlorogenic acid]	Cmax	nM	84.4
O=C(O)[C@H]1O[C@@H](Oc2cc3oc(-c4ccc(O)cc4)cc(=O)c3c(O)c2O)[C@H](O)[C@@H](O)[C@@H]1O [Scutellarin, scutellarin]	Cmax	nM	22

Now consider a different compound.
Measured Cmax, C[C@@H]1O[C@@H](OC[C@H]2O[C@@H](Oc3c(-c4ccc(O)c(O)c4)oc4cc(O)cc(O)c4c3=O)[C@H](O)[C@@H](O)[C@@H]2O)[C@H](O)[C@H](O)[C@H]1O [Rutin, rutin] : 125

---

PROCEDURE TEXT: Metabolite identification in rat serum by UPLC-LTQ-Orbitrap-MS2 after HCT extract; also: key: +: detected; —: undetected
Type: in vivo, SD rats
APPLIED CONDITIONS: FDH group (600 mg/kg BW freeze-dried HCT extract)
RECORDED ENDPOINT: Metabolite detected in Serum, FDH

                                 compound  measured
0                    O=C(O)c1ccc(O)c(O)c1         +
1  COc1c(O)cc2oc(-c3ccc(O)cc3)cc(=O)c2c1O         +
2             Nc1ccc(CCC(=O)O)c(C(=O)O)c1         +
3               COc1cc(C(=O)O)ccc1OC(C)=O         +
4                CCCCCCCCC=CCCCCCCCC(=O)O         +

Measured Metabolite detected in Serum, FDH, O=c1cc(-c2ccc(O)cc2)oc2cc(O)cc(O)c12 : +

Measured Metabolite detected in Serum, FDH, CCCCCCCCCC(=O)CC(=O)O : +

Measured Metabolite detected in Serum, FDH, O=C(O)CCc1ccc(O)c(O)c1 [M10, dihydrocaffeic acid] : +

---

PROCEDURE TEXT: Pharmacokinetics of HCT constituents in rat plasma after a single dose of HCT extract
Format: in vivo, SD rats
APPLIED CONDITIONS: female, SD, rat, plasma, 600 mg/kg, 50H: 600 mg/kg BW 50 °C hot-air dried HCT extract
RECORDED ENDPOINT: half-life (min)
Hi! Could you send only the number? It should be in min, unit omitted.

SUBSTANCE SMILES	UNITS	half-life
O=C(/C=C/c1ccc(O)c(O)c1)O[C@@H]1C[C@](O)(C(=O)O)C[C@@H](O)[C@H]1O	min	123
O=C(O)[C@H]1O[C@@H](Oc2cc3oc(-c4ccc(O)cc4)cc(=O)c3c(O)c2O)[C@H](O)[C@@H](O)[C@@H]1O	min	556

Now consider a different compound.
Measured half-life, C[C@@H]1O[C@@H](OC[C@H]2O[C@@H](Oc3c(-c4ccc(O)c(O)c4)oc4cc(O)cc(O)c4c3=O)[C@H](O)[C@@H](O)[C@@H]2O)[C@H](O)[C@H](O)[C@H]1O : 122
